The reported measurements were obtained from patent EP4671247A1.

measurement.target: NLRP3 inflammasome (Homo sapiens, UniProt Q96P20)
Construct: host or cells: THP1-Null cells (PMA-differentiated, LPS-primed, nigericin-stimulated)
Sequence (Q96P20 whole entry): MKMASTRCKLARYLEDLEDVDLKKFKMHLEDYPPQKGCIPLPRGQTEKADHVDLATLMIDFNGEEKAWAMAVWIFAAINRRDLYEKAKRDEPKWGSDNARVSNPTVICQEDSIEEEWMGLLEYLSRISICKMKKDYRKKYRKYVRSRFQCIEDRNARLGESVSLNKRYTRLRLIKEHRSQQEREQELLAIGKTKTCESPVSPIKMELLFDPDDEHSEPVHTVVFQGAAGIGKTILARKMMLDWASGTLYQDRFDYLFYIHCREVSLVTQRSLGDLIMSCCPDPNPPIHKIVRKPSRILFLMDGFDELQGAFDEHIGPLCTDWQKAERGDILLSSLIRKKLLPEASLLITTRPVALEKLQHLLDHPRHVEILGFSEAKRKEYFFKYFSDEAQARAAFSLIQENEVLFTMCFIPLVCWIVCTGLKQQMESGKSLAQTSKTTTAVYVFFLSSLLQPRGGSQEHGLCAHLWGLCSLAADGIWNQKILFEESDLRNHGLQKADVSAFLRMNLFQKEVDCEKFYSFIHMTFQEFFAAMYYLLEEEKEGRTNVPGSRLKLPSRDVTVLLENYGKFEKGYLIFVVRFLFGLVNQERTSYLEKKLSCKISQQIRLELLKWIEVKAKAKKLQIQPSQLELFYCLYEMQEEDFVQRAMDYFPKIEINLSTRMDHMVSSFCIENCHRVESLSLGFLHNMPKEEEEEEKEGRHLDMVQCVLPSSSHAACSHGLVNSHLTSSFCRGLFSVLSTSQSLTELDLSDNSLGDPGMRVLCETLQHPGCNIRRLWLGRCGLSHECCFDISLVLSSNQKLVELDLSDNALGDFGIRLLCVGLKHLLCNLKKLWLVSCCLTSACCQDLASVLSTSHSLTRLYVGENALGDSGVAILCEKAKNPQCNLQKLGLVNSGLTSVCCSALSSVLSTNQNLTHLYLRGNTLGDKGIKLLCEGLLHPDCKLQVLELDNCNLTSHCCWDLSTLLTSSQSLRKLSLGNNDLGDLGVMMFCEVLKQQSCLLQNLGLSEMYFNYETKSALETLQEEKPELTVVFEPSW
test.description: Evaluation of NLRP3 inflammasome inhibitory activity (inhibition of IL-1β production in LPS/Nigericin-stimulated THP1-Null cells, AlphaLISA)
Type: cell-based
reported.conditions: IL-1β production in THP1-Null cells; PMA, 1 µg/mL Lipopolysaccharides 3 hours, Nigericin 7.5 µmol/L 1.5 hours; read-out: IC50
quantity: pIC50
# pIC50 is unitless: minus log10 of the molar concentration; print number only

Take a look at these entries with their results.
[
  {
    "molecule": "Cc1cc(C2CC2)cc(C)c1-n1cc2c(=O)[nH]c(C#N)nc2n1",
    "pIC50": 6.62
  },
  {
    "molecule": "Cc1cc(OC(F)F)cc(C)c1-n1cc2c(=O)[nH]c(C3CCN(C)CC3)nc2n1",
    "pIC50": 7.17
  },
  {
    "molecule": "Cc1cc(C2CC2)cc(C)c1-n1cc2c(=O)[nH]c(C3CC3CO)nc2n1 (racemic)",
    "pIC50": 8.10
  }
]

(Q) Entry "Cc1cc(C2CC2)cc(C)c1-n1cc2c(=O)[nH]c(C3(C)COC3)nc2n1" has what pIC50?
(A) 7.33

(Q) Entry "Cc1cc(Br)cc(C)c1-n1cc2c(=O)[nH]c(C3(C#N)CC3)nc2n1" has what pIC50?
(A) 6.55
